system: Escherichia coli; experiment: Antibacterial activity against sensitive Escherichia coli ATCC 10536 assessed as reduction in growth in presence of p-aminobenzoic acid; type: functional, organism-based
Calls of active or inactive are those of the source. The rule behind the calls is not given here.
// classify into 1.0 = active, 0.0 = inactive

Which outcome was entered for the molecule N=C(N)N/N=C(\c1ccc(F)cc1)c1ccc(C(F)(F)F)cc1 in this test?
1.0

---

tested on: Lacticaseibacillus casei; assay: Antibacterial activity against sensitive Lactobacillus casei ATCC 7469 assessed as reduction in growth in presence of 0.001 ug/ml folic acid; assay type: functional, organism-based
Activity calls are given as the source filed them. No cut-off for these calls is given here.
Choose the fitting class; nothing outside active, inactive is accepted.

INSERT INTO assay_data (compound, target_desc, category_label) VALUES
  ('N=C(N)N/N=C(\c1ccc(F)cc1)c1ccc(C(F)(F)F)cc1', 'Lacticaseibacillus casei', 'active'),
  ('CC1(C)N=C(N)N=C(N)N1c1ccc(Cl)cc1', 'Lacticaseibacillus casei', 'inactive'),
  ('Clc1ccc(Nc2nc(NCCCN3CCCC3)c3ccccc3n2)cc1Cl', 'Lacticaseibacillus casei', 'active'),
  ('CCOC(=O)c1cnc(S)nc1O', 'Lacticaseibacillus casei', 'active'),
  ('CC1(C)N=C(N)N=C(N)N1OCc1ccc(Cl)c(Cl)c1', 'Lacticaseibacillus casei', 'inactive');

Outcome? COc1cc(Cc2cnc(N)nc2N)cc(OC)c1OC
inactive

Tell me the recorded outcome of this test for N=C(N)NC(=O)Nc1ccc([N+](=O)[O-])cc1 .
active

Answer briefly: the call reported for Nc1nc(N)c2cc(Oc3cc(Cl)cc(Cl)c3)ccc2n1 in this assay.
inactive

For C=C[C@H]1CN2CC[C@H]1C[C@H]2[C@H](O)c1ccnc2ccc(OC)cc12 , what call appears in the results of this test?
active

Hi, sorry to bother you, what did the test record for Nc1nc(=O)c2c([nH]1)NCC(CCNc1ccc(C(=O)[O-])cc1)N2.[Na+] (centres undefined) ?
inactive

Dear colleague, could you share the recorded outcome for Nc1nc(N)c2cc(S(=O)(=O)c3ccc4ccccc4c3)ccc2n1 when you have a moment?
inactive

I'd appreciate the recorded outcome for CC(C)c1nc2nc(N)nc(N)c2nc1C(C)C from this test.
inactive

Recorded call for CC(CNc1nc(Nc2ccc(Cl)c(Cl)c2)nc(C(Cl)(Cl)Cl)n1)N(C)C (centres undefined) ?
active

Recorded call for CCN1CCCC(Nc2cc(C)nc(NC(=N)Nc3ccc(Cl)c(Cl)c3)n2)C1 (centres undefined) ?
active

// outcome(item) with item = Nc1ccc(S(=O)(=O)c2ccc(N)cc2)cc1
active

Dear all, I need the recorded test outcome for Nc1nc(N)c2cc(SCc3ccc(Cl)cc3)ccc2n1 , thank you.
inactive

Outcome logged for CN1CCCCC1CNc1nc(-c2ccc(Cl)c(Cl)c2)nc(C(Cl)(Cl)Cl)n1 (centres undefined) in this assay:
active

What call does the record list for ClC(Cl)(Cl)c1ccc(C(Cl)(Cl)Cl)cc1 ?
active

In this assay, the call recorded for Nc1nc(N)c2cc(Sc3ccc(Cl)cc3)ccc2n1 was what?
inactive

These measurements were taken from ChEMBL document CHEMBL3272032.
